Where do the numbers come from? From ChEMBL document CHEMBL5661955.

Experiment: Functional assay to measure dose dependent changes in cell viability from drug treatment in Vero E6 miRFP670 cells (cotreated with P-gp inhibitor, CP100356) that are infected with Dengue virus type 2 New Guinea C. […] Cytotoxicity is reported via via analysis of DAPI count using high-content imager. The assay has been performed by KU Leuven.
Assay type: toxicity, cell-based, Vero C1008
Details: chlorocebus sabaeus, with CP100356 (P-gp inhibitor, concentration not stated); p-gp concentration 500 nM

{"CPD SMILES": "O=C(Nc1cc2c(c(C3=CCS(=O)(=O)CC3)c1)CNC2)c1cc(F)cc2[nH]ncc12", "VALUE UNITS": "µM", "COMPARATIVE SIGN": ">", "CC50": 50}
{"CPD SMILES": "COCCNC(=O)[C@H](Nc1ccc2c(c1)CNC2)c1cc(Cl)cc(C2CC2)c1", "VALUE UNITS": "µM", "COMPARATIVE SIGN": ">", "CC50": 50}
{"CPD SMILES": "NCc1ccc2c(c1)[C@H]1OCCC[C@H]1[C@H](c1cc(Cl)cc(NC(=O)OCc3ccccc3)c1)N2", "VALUE UNITS": "µM", "COMPARATIVE SIGN": "=", "CC50": 5.8}
{"CPD SMILES": "c1ccc2sc(C3CCN(Cc4c[nH]c5ccccc45)CC3)nc2c1", "VALUE UNITS": "µM", "COMPARATIVE SIGN": "=", "CC50": 5.31}
{"CPD SMILES": "C=C1C[C@H](c2cc(Cl)cc(NC(=O)OCc3ccccc3)c2)[C@@H](c2cccc(-c3nn[nH]n3)c2)C1", "VALUE UNITS": "µM", "COMPARATIVE SIGN": "=", "CC50": 7.56}
{"CPD SMILES": "CC(C)Cc1nc2c(C(=O)Nc3ccc4c(c3)CNC4)cc(Br)cc2[nH]1", "VALUE UNITS": "µM", "COMPARATIVE SIGN": "=", "CC50": 0.864}
{"CPD SMILES": "Cn1cc(CCc2nc3c(C(=O)Nc4ccc5c(c4)CNC5)cc(Cl)cc3[nH]2)cn1", "VALUE UNITS": "µM", "COMPARATIVE SIGN": ">", "CC50": 50}
{"CPD SMILES": "C=Cc1cc2c(cc1NC(=O)c1cc(F)cc3[nH]ncc13)CNC2", "VALUE UNITS": "µM", "COMPARATIVE SIGN": ">", "CC50": 50}
{"CPD SMILES": "CCCCCC(=O)N[C@H](C(=O)Nc1ccc(C(N)=O)cc1)c1ccc(OCc2ccccc2)cc1", "VALUE UNITS": "µM", "COMPARATIVE SIGN": ">", "CC50": 10}

---

// values below are reported CC50
Test: Functional CPE-based assay to measure dose dependent changes in cell viability from drug treatment in Vero E6 miRFP670 cells. Cells are treated with antiviral candidates that have been serially diluted. Cytotoxicity is reported via analysis of MTS assays in uninfected cells. The assay has been performed by KU Leuven.
Format: toxicity, Vero C1008
Settings: chlorocebus sabaeus, Vero E6 miRFP670 cells

{"COMPOUND": "NCCCc1cccc(NC(=O)c2cc(Cl)cc(NC(=O)OCc3ccccc3)c2)n1", "VALUE UNITS": "µM", "COMPARATIVE SIGN": "=", "CC50": 4.43}
{"COMPOUND": "NCc1cccc(NC(=O)c2cc(Cl)cc(-n3cccc3)c2)c1", "VALUE UNITS": "µM", "COMPARATIVE SIGN": "=", "CC50": 25.7}
{"COMPOUND": "O=C(O)c1cc(Cl)c(F)cc1S(=O)(=O)Nc1ccc(Oc2ccccc2Cl)cc1", "VALUE UNITS": "µM", "COMPARATIVE SIGN": ">", "CC50": 50}
{"COMPOUND": "CCCNC(=O)[C@H](Nc1cccc(-c2nn[nH]n2)c1)c1cc(Cl)cc(NC(=O)OCc2ccccc2)c1", "VALUE UNITS": "µM", "COMPARATIVE SIGN": ">", "CC50": 50}
{"COMPOUND": "O=C(Nc1cc(Cl)cc(-c2cccc3c(C(=O)O)cccc23)c1)OCc1ccccc1", "VALUE UNITS": "µM", "COMPARATIVE SIGN": "<", "CC50": 0.391}
{"COMPOUND": "C#C[C@@]1(O)[C@H](O)[C@@H](CO)O[C@H]1n1ccc2c(N)ncnc21", "VALUE UNITS": "µM", "COMPARATIVE SIGN": ">", "CC50": 50}
{"COMPOUND": "O=C(Nc1ccc2c(c1)CNC2)c1cc(Br)cc2c1OCO2", "VALUE UNITS": "µM", "COMPARATIVE SIGN": "=", "CC50": 23}
{"COMPOUND": "O=C(Nc1cccc(-c2nnn[nH]2)c1)c1cc(Cl)cc(C2CC2)c1", "VALUE UNITS": "µM", "COMPARATIVE SIGN": ">", "CC50": 50}
{"COMPOUND": "CC(C)CNC(=O)c1cc(Cl)ccc1NS(=O)(=O)c1ccc(Oc2ccccc2Cl)cc1", "VALUE UNITS": "µM", "COMPARATIVE SIGN": "=", "CC50": 4.76}
{"COMPOUND": "CC(C)c1cc(Br)cc(C(=O)Nc2ccc3c(c2)CNC3)c1", "VALUE UNITS": "µM", "COMPARATIVE SIGN": "=", "CC50": 11.5}
{"COMPOUND": "NCCc1ccc([C@H]2C[C@@H]2c2cc(Cl)cc(NC(=O)OCc3ccccc3)c2)cc1", "VALUE UNITS": "µM", "COMPARATIVE SIGN": "=", "CC50": 2.43}
{"COMPOUND": "NCCc1cccc(NC(=O)[C@H]2[C@H]3CCCCC[C@H]3[C@H]2NC(=O)OCc2ccccc2)c1", "VALUE UNITS": "µM", "COMPARATIVE SIGN": "=", "CC50": 7.48}
{"COMPOUND": "O=C(Nc1cc(Cl)cc(C(=O)Nc2ccc3c(c2)CNCC3)c1)OCc1ccccc1", "VALUE UNITS": "µM", "COMPARATIVE SIGN": "=", "CC50": 2.85}
{"COMPOUND": "COc1cc(-c2cc(Cl)cc(NC(=O)OCc3ccccc3)c2)c(OC)cc1CC(=O)O", "VALUE UNITS": "µM", "COMPARATIVE SIGN": "=", "CC50": 49.8}
{"COMPOUND": "C=CC[C@H](Nc1cc(Cl)cc(NC(=O)OCc2ccccc2)c1)c1ccc(-c2nn[nH]n2)cc1", "VALUE UNITS": "µM", "COMPARATIVE SIGN": "=", "CC50": 14.6}
{"COMPOUND": "NCc1cccc(NC(=O)[C@H](NC(=O)OCc2ccccc2)C2CCC(c3ccccc3)CC2)c1 (some centres undefined)", "VALUE UNITS": "µM", "COMPARATIVE SIGN": "=", "CC50": 4.58}
{"COMPOUND": "N#C[C@H](Nc1cncc(-c2nn[nH]n2)c1)c1cc(Cl)cc(NC(=O)OCc2ccccc2)c1", "VALUE UNITS": "µM", "COMPARATIVE SIGN": ">", "CC50": 50}
{"COMPOUND": "O=C(Nc1ccc2c(c1)CNC2)c1cc(Cl)cc(C2CC2)c1", "VALUE UNITS": "µM", "COMPARATIVE SIGN": "=", "CC50": 10.5}
{"COMPOUND": "CC[C@@H](Cc1nnn[nH]1)c1ccc(NC(=O)c2cc(Cl)cc(NC(=O)OCc3ccccc3)c2)cc1", "VALUE UNITS": "µM", "COMPARATIVE SIGN": ">", "CC50": 50}
{"COMPOUND": "Clc1ccc2[nH]cc(Cc3ccc(-c4nn[nH]n4)cc3)c2c1", "VALUE UNITS": "µM", "COMPARATIVE SIGN": ">", "CC50": 50}
{"COMPOUND": "CC1(C)Cc2sc(NC(=O)Cc3ccc(S(N)(=O)=O)cc3)c(C#N)c2CN1CC1CCCCC1", "VALUE UNITS": "µM", "COMPARATIVE SIGN": ">", "CC50": 50}
{"COMPOUND": "O=C(Nc1cc(Cl)cc([C@H]2C[C@@H]2c2cccc(C3CCNCC3)c2)c1)OCc1ccccc1", "VALUE UNITS": "µM", "COMPARATIVE SIGN": "=", "CC50": 1.23}
{"COMPOUND": "COC(=O)c1cc(NC(=O)c2cc(Cl)cc(NC(=O)OCc3ccccc3)c2)cc(-c2nnn[nH]2)c1", "VALUE UNITS": "µM", "COMPARATIVE SIGN": "=", "CC50": 35.2}
{"COMPOUND": "O=C(Nc1cc(Cl)cc(C(=O)NCc2ccc(-c3nnn[nH]3)cc2)c1)OCc1ccccc1", "VALUE UNITS": "µM", "COMPARATIVE SIGN": ">", "CC50": 50}
{"COMPOUND": "O=C(Nc1cc(Cl)cc([C@H]2CN(Cc3ccccc3)C[C@@H]2c2cccc(-c3nn[nH]n3)c2)c1)OCc1ccccc1", "VALUE UNITS": "µM", "COMPARATIVE SIGN": "=", "CC50": 12.5}
{"COMPOUND": "CCNC(=O)Nc1cc(Cl)cc(C(=O)Nc2ccc3c(c2)CNCCO3)c1", "VALUE UNITS": "µM", "COMPARATIVE SIGN": ">", "CC50": 50}
{"COMPOUND": "CC(C)NC(=O)[C@H](Nc1ccc2c(c1)CNC2)c1cc(Cl)cc2[nH]ncc12", "VALUE UNITS": "µM", "COMPARATIVE SIGN": ">", "CC50": 50}
{"COMPOUND": "O=C(Nc1cc(Cl)cc(-c2ccc3[nH]nc(C(=O)O)c3c2)c1)OCc1ccccc1", "VALUE UNITS": "µM", "COMPARATIVE SIGN": ">", "CC50": 50}
{"COMPOUND": "C=C1C[C@H](c2cc(Cl)cc(NC(=O)OCc3ccccc3)c2)[C@@H](c2cccc(-c3nn[nH]n3)c2)C1", "VALUE UNITS": "µM", "COMPARATIVE SIGN": "=", "CC50": 5.72}
{"COMPOUND": "CNC(=O)[C@H](Nc1cc(CN)cc(C(=O)O)c1)c1cc(Cl)cc(C2CC2)c1", "VALUE UNITS": "µM", "COMPARATIVE SIGN": ">", "CC50": 50}
{"COMPOUND": "NCc1cccc(NC(=O)c2cc(Cl)cc3c2cnn3CC2CC2)c1", "VALUE UNITS": "µM", "COMPARATIVE SIGN": "=", "CC50": 20.7}
{"COMPOUND": "O=C(Nc1cc(Cl)cc(-c2ccc3cc(C(=O)O)[nH]c3c2)c1)OCc1ccccc1", "VALUE UNITS": "µM", "COMPARATIVE SIGN": "<", "CC50": 0.391}
{"COMPOUND": "O=C(Nc1ccc2c(c1)CNC2)c1cccc2[nH]ncc12", "VALUE UNITS": "µM", "COMPARATIVE SIGN": "=", "CC50": 11.5}
{"COMPOUND": "O=C(Nc1cccc(-c2nnn[nH]2)c1)c1cc(Cl)cc2[nH]ncc12", "VALUE UNITS": "µM", "COMPARATIVE SIGN": ">", "CC50": 50}
{"COMPOUND": "N#C[C@H](Nc1ccc2c(c1)CNC2)c1cc(Cl)cc2[nH]ncc12", "VALUE UNITS": "µM", "COMPARATIVE SIGN": ">", "CC50": 50}
{"COMPOUND": "NCc1cccc(NC(=O)c2cc(Cl)cc(C3CC3)c2)c1", "VALUE UNITS": "µM", "COMPARATIVE SIGN": "=", "CC50": 46.6}
{"COMPOUND": "COc1ccc(S(=O)(=O)Nc2cc(F)c(Cl)cc2C(=O)NCC(C)C)cc1", "VALUE UNITS": "µM", "COMPARATIVE SIGN": "=", "CC50": 4.25}
{"COMPOUND": "CC(C)(C)NC(=O)[C@H](Nc1cccc(-c2nn[nH]n2)c1)c1cc(Cl)cc(NC(=O)OCc2ccccc2)c1", "VALUE UNITS": "µM", "COMPARATIVE SIGN": ">", "CC50": 50}
{"COMPOUND": "O=C(Nc1ccc2c(c1)CNCC2)c1cc(Cl)cc2[nH]ncc12", "VALUE UNITS": "µM", "COMPARATIVE SIGN": ">", "CC50": 50}
